target_or_test_system: BRAF V600E (Homo sapiens (Human), UniProt P15056, V600E)
Sequence (P15056 whole entry V600E): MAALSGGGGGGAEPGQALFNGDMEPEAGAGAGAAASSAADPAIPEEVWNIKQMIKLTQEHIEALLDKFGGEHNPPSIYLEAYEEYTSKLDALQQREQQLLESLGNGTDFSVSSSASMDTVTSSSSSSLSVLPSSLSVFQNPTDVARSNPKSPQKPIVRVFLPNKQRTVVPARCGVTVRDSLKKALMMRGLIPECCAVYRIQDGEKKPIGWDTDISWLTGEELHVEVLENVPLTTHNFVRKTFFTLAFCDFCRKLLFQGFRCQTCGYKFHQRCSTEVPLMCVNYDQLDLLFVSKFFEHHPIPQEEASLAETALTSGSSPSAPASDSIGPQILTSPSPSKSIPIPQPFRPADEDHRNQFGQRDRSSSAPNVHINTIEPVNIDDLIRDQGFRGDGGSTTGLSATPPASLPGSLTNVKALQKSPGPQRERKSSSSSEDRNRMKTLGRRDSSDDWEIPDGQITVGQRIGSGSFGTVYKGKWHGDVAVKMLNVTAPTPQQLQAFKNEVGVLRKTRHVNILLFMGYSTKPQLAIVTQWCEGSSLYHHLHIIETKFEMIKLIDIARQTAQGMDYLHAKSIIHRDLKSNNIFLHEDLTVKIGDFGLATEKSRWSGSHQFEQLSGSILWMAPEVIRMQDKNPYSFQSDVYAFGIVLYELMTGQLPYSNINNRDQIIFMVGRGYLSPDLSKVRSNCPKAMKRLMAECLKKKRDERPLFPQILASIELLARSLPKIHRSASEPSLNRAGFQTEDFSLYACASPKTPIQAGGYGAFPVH
assay_info: Inhibitory activity against kinase BRAF V600E, Z'-LYTE method (Invitrogen)
Assay type: biochemical
condition_notes: 1 μM compound; read-out: Inhibition (% inhibition at 1 μM) against BRAF V600E
readout: inhibition at 1 µM

Qu. Item `O=C(Nc1ccc(F)cc1)Nc1ccc(Oc2ccc3nccnc3c2)cc1F` has what recorded inhibition at 1 µM?
Ans. > 89%

Qu. Item `O=C(Nc1cccc(F)c1)Nc1cccc(Oc2ccc3nccnc3c2)c1` has what recorded inhibition at 1 µM?
Ans. 70 to 89%

Qu. Item `O=C(Nc1ccc(Cl)cc1)Nc1ccc(F)c(Oc2ccc3ncc(N4CCNCC4)nc3c2)c1` has what recorded inhibition at 1 µM?
Ans. > 89%

Qu. Item `O=C(Nc1ccc(Cl)cc1)Nc1ccc(F)c(Oc2ccc3ncc(N4CCOCC4)nc3c2)c1` has what recorded inhibition at 1 µM?
Ans. > 89%

Qu. Item `O=C(Nc1cccc(Oc2ccc3ncc(N4CCOCC4)nc3c2)c1)Nc1ccc(F)c(F)c1` has what recorded inhibition at 1 µM?
Ans. > 89%

Qu. Item `O=C(Nc1cccc(C(F)(F)F)c1)Nc1ccc(F)c(Oc2ccc3ncc(N4CCNCC4)nc3c2)c1` has what recorded inhibition at 1 µM?
Ans. > 89%

Qu. Item `O=C(Nc1cc(F)cc(F)c1)Nc1cccc(Oc2ccc3ncc(N4CCNCC4)nc3c2)c1` has what recorded inhibition at 1 µM?
Ans. > 89%

Qu. Item `O=C(Nc1cccc(Oc2ccc3nccnc3c2)c1)c1ccc(Cl)c(C(F)(F)F)c1` has what recorded inhibition at 1 µM?
Ans. > 89%

Qu. Item `O=C(Nc1ccc(Oc2ccc3ncc(N4CCOCC4)nc3c2)cc1)Nc1ccc(C(F)(F)F)cc1` has what recorded inhibition at 1 µM?
Ans. 70 to 89%

Qu. Item `O=C(Nc1cccc(Oc2ccc3nccnc3c2)c1)c1cccc(C(F)(F)F)c1` has what recorded inhibition at 1 µM?
Ans. 70 to 89%

Qu. Item `O=C(Nc1cccc(F)c1)Nc1ccc(F)c(Oc2ccc3ncc(N4CCNCC4)nc3c2)c1` has what recorded inhibition at 1 µM?
Ans. > 89%

Qu. Item `O=C(Nc1ccc(Oc2ccc3ncc(N4CCNCC4)nc3c2)cc1)Nc1ccc(Cl)c(C(F)(F)F)c1` has what recorded inhibition at 1 µM?
Ans. > 89%

Qu. Item `O=C(Nc1cc(F)cc(F)c1)Nc1ccc(F)c(Oc2ccc3ncc(N4CCOCC4)nc3c2)c1` has what recorded inhibition at 1 µM?
Ans. > 89%

Qu. Item `O=C(Nc1ccc(F)c(Oc2ccc3nccnc3c2)c1)c1cccc(C(F)(F)F)c1` has what recorded inhibition at 1 µM?
Ans. > 89%

Qu. Item `O=C(Nc1ccc(F)c(Oc2ccc3ncc(N4CCOCC4)nc3c2)c1)c1cccc(F)c1` has what recorded inhibition at 1 µM?
Ans. 70 to 89%

Qu. Item `O=C(Nc1ccc(F)cc1)Nc1cccc(Oc2ccc3ncc(N4CCNCC4)nc3c2)c1` has what recorded inhibition at 1 µM?
Ans. > 89%

Qu. Item `O=C(Nc1cccc(Oc2ccc3ncc(N4CCOCC4)nc3c2)c1)Nc1ccc(Cl)c(C(F)(F)F)c1` has what recorded inhibition at 1 µM?
Ans. 70 to 89%

Qu. Item `O=C(Nc1cccc(F)c1)Nc1cc(F)cc(Oc2ccc3ncc(N4CCOCC4)nc3c2)c1` has what recorded inhibition at 1 µM?
Ans. > 89%

Qu. Item `O=C(Nc1ccc(F)c(C(F)(F)F)c1)Nc1ccc(Oc2ccc3nccnc3c2)cc1F` has what recorded inhibition at 1 µM?
Ans. 70 to 89%

Qu. Item `O=C(Nc1ccc(F)c(Cl)c1)Nc1ccc(F)c(Oc2ccc3ncc(N4CCOCC4)nc3c2)c1` has what recorded inhibition at 1 µM?
Ans. > 89%

Qu. Item `O=C(Nc1ccc(F)cc1)Nc1ccc(Oc2ccc3ncc(N4CCOCC4)nc3c2)cc1` has what recorded inhibition at 1 µM?
Ans. > 89%

Qu. Item `O=C(Nc1cccc(Cl)c1)Nc1ccc(Oc2ccc3nccnc3c2)c(F)c1` has what recorded inhibition at 1 µM?
Ans. 70 to 89%

Qu. Item `O=C(Nc1cccc(F)c1)Nc1cc(F)cc(Oc2ccc3nccnc3c2)c1` has what recorded inhibition at 1 µM?
Ans. 70 to 89%
